# TGT: human cyclin D1-CDK4 (Homo sapiens, UniProt P11802)
# Sequence (P11802 whole entry): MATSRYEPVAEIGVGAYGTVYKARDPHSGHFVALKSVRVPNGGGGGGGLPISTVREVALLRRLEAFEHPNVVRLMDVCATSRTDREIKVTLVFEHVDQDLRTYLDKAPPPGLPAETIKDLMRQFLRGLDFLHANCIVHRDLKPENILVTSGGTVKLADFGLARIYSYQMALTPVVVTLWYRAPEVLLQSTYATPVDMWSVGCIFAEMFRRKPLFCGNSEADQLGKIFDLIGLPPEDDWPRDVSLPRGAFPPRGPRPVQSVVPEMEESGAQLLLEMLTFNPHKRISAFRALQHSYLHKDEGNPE
# Sequence (P24385 whole entry partner): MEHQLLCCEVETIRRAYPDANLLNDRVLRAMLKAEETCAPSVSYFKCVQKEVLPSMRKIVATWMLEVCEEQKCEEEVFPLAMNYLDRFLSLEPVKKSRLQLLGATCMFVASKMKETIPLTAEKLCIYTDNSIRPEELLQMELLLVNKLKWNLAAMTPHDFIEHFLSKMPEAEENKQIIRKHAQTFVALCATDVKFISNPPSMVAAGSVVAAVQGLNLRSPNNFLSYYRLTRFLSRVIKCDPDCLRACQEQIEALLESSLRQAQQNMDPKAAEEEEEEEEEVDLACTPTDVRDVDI
# METHOD_SUMMARY: FlashPlate kinase assay, cyclin D1-CDK4, Rb substrate
# CONDITION_SUMMARY: recombinant cyclin D1-CDK4, Rb phosphorylation, 1 μM ATP
# Procedure: To determine inhibition of Cdk4, Cdk2 and Cdk1 activity, kinase assays were conducted using FlashPlate™ assays (NEN™-Life Science Products). FlashPlate assays were performed using recombinant human cyclin B-CDK1, human cyclin E-CDK2 or human cyclin D1-CDK4 complexes. […] The expression of the 62 Kd protein was under the control of an IPTG inducible promoter in an M15 E. coli strain. […] Purified Rb fusion protein stocks were quantitated for protein concentration, aliquoted, and stored at −70° C. […]
IC50 values for the molecules below.
VALUE_TYPE: IC50

• Nc1nc(Nc2ccc(OCCN3CCCC3)cc2)sc1C(=O)c1cccc(C2CC2)c1 = 37 nM
• CN(C)CCOc1ccc(Nc2nc(N)c(C(=O)c3cccc(C#N)c3)s2)cc1 = 79 nM
• Nc1nc(Nc2ccc(OC3CCCNC3)cc2)sc1C(=O)c1cccc(F)c1 (centres unmarked) = 65 nM
• CCN1CCCC(Oc2ccc(Nc3nc(N)c(C(=O)c4cccc(C)c4)s3)cc2)C1 (centres unmarked) = 41 nM
• CCc1cccc(C(=O)c2sc(Nc3ccc(OCCN4CCCC4)cc3)nc2N)c1 = 22 nM

---

IC50 values for the molecules below.
# TGT: human cyclin B-CDK1 (Homo sapiens)
# Sequence (P06493 whole entry): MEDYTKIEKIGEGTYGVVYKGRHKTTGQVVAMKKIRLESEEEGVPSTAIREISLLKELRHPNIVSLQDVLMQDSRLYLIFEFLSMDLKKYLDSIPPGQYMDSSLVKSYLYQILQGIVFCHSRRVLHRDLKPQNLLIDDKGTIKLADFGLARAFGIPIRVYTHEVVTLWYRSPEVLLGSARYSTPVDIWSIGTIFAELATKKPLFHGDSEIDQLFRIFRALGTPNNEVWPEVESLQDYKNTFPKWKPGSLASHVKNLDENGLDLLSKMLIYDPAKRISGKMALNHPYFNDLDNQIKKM
# Sequence (P14635 whole entry partner): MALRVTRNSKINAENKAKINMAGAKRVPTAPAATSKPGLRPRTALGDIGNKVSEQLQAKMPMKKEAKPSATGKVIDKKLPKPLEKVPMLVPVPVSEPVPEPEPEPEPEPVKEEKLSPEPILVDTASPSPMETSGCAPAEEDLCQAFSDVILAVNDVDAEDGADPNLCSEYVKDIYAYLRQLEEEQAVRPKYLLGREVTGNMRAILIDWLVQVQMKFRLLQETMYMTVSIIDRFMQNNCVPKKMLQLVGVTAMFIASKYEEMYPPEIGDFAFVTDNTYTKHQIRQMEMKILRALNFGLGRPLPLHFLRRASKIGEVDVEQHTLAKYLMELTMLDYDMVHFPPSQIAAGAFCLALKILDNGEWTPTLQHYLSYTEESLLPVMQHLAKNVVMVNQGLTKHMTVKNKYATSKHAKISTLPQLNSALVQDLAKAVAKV
# METHOD_SUMMARY: FlashPlate kinase assay, cyclin B-CDK1, Rb substrate
# CONDITION_SUMMARY: recombinant cyclin B-CDK1, Rb phosphorylation, 1 μM ATP
VALUE_TYPE: IC50 (nM)

- CCc1cccc(C(=O)c2sc(Nc3ccc(OC4CCN(CC)C4)cc3)nc2N)c1 (stereo not shown): 655
- Cc1ccc(C(=O)c2sc(Nc3ccc(OC4CCNC4)cc3)nc2N)cc1F (stereo not shown): 682
- CN(C)CCOc1ccc(Nc2nc(N)c(C(=O)c3cccc([N+](=O)[O-])c3)s2)cc1: 381
- CCNCCOc1ccc(Nc2nc(N)c(C(=O)c3ccc4c(c3)OCCO4)s2)cc1: 1930

---

# TGT: human cyclin E-CDK2 (Homo sapiens)
# METHOD_SUMMARY: FlashPlate kinase assay, cyclin E-CDK2, Rb substrate
# CONDITION_SUMMARY: recombinant cyclin E-CDK2, Rb phosphorylation, 1 μM ATP
VALUE_TYPE: IC50 (µM)

* Nc1nc(Nc2ccc(OC3CCNC3)cc2)sc1C(=O)c1cccc(F)c1 (centres unmarked) [Example 45] | 0.589
* CCc1ccc(C(=O)c2sc(Nc3ccc(OCCN4CCCC4)cc3)nc2N)cc1F [Example 6, Trifluoroacetic Acid] | 3.17
* CCCc1cc(C(=O)c2sc(Nc3ccc(OCC(C)(C)N(C)C)cc3)nc2N)ccc1O [Example 108, Acetic Acid] | 0.295
* Cc1cccc(C(=O)c2sc(Nc3ccc(OCCN(C)C)cc3)nc2N)c1 [Example 50] | 3.36
* CCOc1cccc(C(=O)c2sc(Nc3ccc(OCCN4CCCC4)cc3)nc2N)c1 [Example 62] | 4.45
* CC(C)NCCOc1ccc(Nc2nc(N)c(C(=O)c3ccc4c(c3)OCO4)s2)cc1 [Example 137] | 2.75
* CCCc1cc(C(=O)c2sc(Nc3ccc(OC[C@@H]4CCCN4C)cc3)nc2N)ccc1O [Example 115, Acetate] | 0.267
* CN(C)CCOc1ccc(Nc2nc(N)c(C(=O)c3cccc(C4CC4)c3)s2)cc1 [Example 69] | 2.89
* CCN(CC)CCOc1ccc(Nc2nc(N)c(C(=O)c3cccc(OC)c3)s2)cc1 [Example 145] | 0.9
* C[C@H](COc1ccc(Nc2nc(N)c(C(=O)c3cccc(C4CC4)c3)s2)cc1)N1CCCC1 [Example 68] | 4.54
* Nc1nc(Nc2ccc(OC3CCCNC3)cc2)sc1C(=O)c1cccc(F)c1 (centres unmarked) [Example 46] | 1.14
* CCCc1cc(C(=O)c2sc(Nc3ccc(OCCNCC)cc3)nc2N)ccc1O [Example 105, Acetic Acid] | 0.176
* COc1ccc(C(=O)c2sc(Nc3ccc(OC4CCNC4)cc3)nc2N)cc1F (centres unmarked) [Example 96] | 1.44
* CN(C)C(C)(C)COc1ccc(Nc2nc(N)c(C(=O)c3cccc(C4CC4)c3)s2)cc1 [Example 71] | 2.11
* CCc1cccc(C(=O)c2sc(Nc3ccc(OC[C@@H]4CCCN4C)cc3)nc2N)c1 [Example 112] | 2.32
* COc1ccc(C(=O)c2sc(Nc3ccc(OCCN(C)C)cc3)nc2N)cc1[N+](=O)[O-] [Example 49] | 4.3
* CCNCCOc1ccc(Nc2nc(N)c(C(=O)c3ccc4c(c3)CCO4)s2)cc1 [Example 143] | 3.02

---

# TGT: human cyclin E-CDK2 (Homo sapiens, UniProt P24941)
# METHOD_SUMMARY: FlashPlate kinase assay, cyclin E-CDK2, Rb substrate
# CONDITION_SUMMARY: recombinant cyclin E-CDK2, Rb phosphorylation, 1 μM ATP
Please note: IC50 exactly at 1000 nM is false. Only values below 1000 nM get true.

* CCc1cccc(C(=O)c2sc(Nc3ccc(OC[C@@H](C)N4CCCC4)cc3)nc2N)c1 [Example 67] | false
* Nc1nc(Nc2ccc(OCCN3CCOCC3)cc2)sc1C(=O)c1ccc2c(c1)OCO2 [Example 56] | false
* Nc1nc(Nc2ccc(OC[C@@H]3CCCN3)cc2)sc1C(=O)c1cccc(F)c1 [Example 3] | false
* Cc1cccc(C(=O)c2sc(Nc3ccc(OC[C@@H]4CCCN4C)cc3)nc2N)c1 [Example 111] | false
* CCNCCOc1ccc(Nc2nc(N)c(C(=O)c3ccc4c(c3)OCO4)s2)cc1 [Example 133] | false
* CN(C)C(C)(C)COc1ccc(Nc2nc(N)c(C(=O)c3cccc(F)c3)s2)cc1 [Example 39] | true
* COc1ccc(C(=O)c2sc(Nc3ccc(OC4CCCNC4)cc3)nc2N)cc1F (centres unmarked) [Example 97] | false
* CCN1CCCC(Oc2ccc(Nc3nc(N)c(C(=O)c4ccc(C)c(F)c4)s3)cc2)C1 (centres unmarked) [Example 87] | true
* CN(C)CCOc1ccc(Nc2nc(N)c(C(=O)c3cccc(Br)c3)s2)cc1 [Example 65] | false
* CCCc1cc(C(=O)c2sc(Nc3ccc(OC4CCCNC4)cc3)nc2N)ccc1O (centres unmarked) [Example 99] | true
* Nc1nc(Nc2ccc(OCCN3CCCC3)cc2)sc1C(=O)c1ccc(O)c(F)c1 [Example 120, Acetic Acid] | true
* CCc1cc(C(=O)c2sc(Nc3ccc(OC4CCCN(CC)C4)cc3)nc2N)ccc1F (centres unmarked) [Example 81] | false
* CCc1cccc(C(=O)c2sc(Nc3ccc(OC4CCNC4)cc3)nc2N)c1 (centres unmarked) [Example 92, Acetic Acid] | true
* Nc1nc(Nc2ccc(OCCN3CCOCC3)cc2)sc1C(=O)c1cccc(F)c1 [Example 47] | false
* CCCc1cc(C(=O)c2sc(Nc3ccc(OC4CCNC4)cc3)nc2N)ccc1O (centres unmarked) [Example 90, Acetic Acid] | true
* Nc1nc(Nc2ccc(OCCN3CCOCC3)cc2)sc1C(=O)c1ccc2c(c1)OCCO2 [Example 55] | false
* CC(COc1ccc(Nc2nc(N)c(C(=O)c3cccc(F)c3)s2)cc1)N(C)C (centres unmarked) [Example 38] | false

---

# TGT: human cyclin D1-CDK4 (Homo sapiens, UniProt P11802)
# METHOD_SUMMARY: FlashPlate kinase assay, cyclin D1-CDK4, Rb substrate
# CONDITION_SUMMARY: recombinant cyclin D1-CDK4, Rb phosphorylation, 1 μM ATP
Please note: IC50 exactly at 50 nM is 0 (no). Only values below 50 nM get 1 (yes).

* CCCc1cc(C(=O)c2sc(Nc3ccc(OCCNCC)cc3)nc2N)ccc1O | 1 (yes)
* Nc1nc(Nc2ccc(OCCN3CCCC3)cc2)sc1C(=O)c1ccc2c(c1)OCO2 | 0 (no)
* CCCc1cc(C(=O)c2sc(Nc3ccc(OC[C@@H]4CCCN4C)cc3)nc2N)ccc1O [Example 115, Acetate] | 1 (yes)
* CC(C)NCCOc1ccc(Nc2nc(N)c(C(=O)c3ccc4c(c3)OCO4)s2)cc1 | 1 (yes)
* CCN1CCC(Oc2ccc(Nc3nc(N)c(C(=O)c4cccc(F)c4)s3)cc2)C1 (centres unmarked) | 0 (no)
* CCc1cccc(C(=O)c2sc(Nc3ccc(OC4CCCN(CC)C4)cc3)nc2N)c1 (centres unmarked) | 1 (yes)
* Nc1nc(Nc2ccc(OCCN3CCOCC3)cc2)sc1C(=O)c1ccc2c(c1)OCCO2 | 0 (no)

---

# TGT: human cyclin D1-CDK4 (Homo sapiens, UniProt P11802)
# METHOD_SUMMARY: FlashPlate kinase assay, cyclin D1-CDK4, Rb substrate
# CONDITION_SUMMARY: recombinant cyclin D1-CDK4, Rb phosphorylation, 1 μM ATP
pIC50: −log10 of the molar value.
VALUE_TYPE: pIC50

- Cc1cccc(C(=O)c2sc(Nc3ccc(OCCN(C)C)cc3)nc2N)c1: 7.22
- CCCc1cc(C(=O)c2sc(Nc3ccc(OCCN(C)C)cc3)nc2N)ccc1O: 7.77
- Nc1nc(Nc2ccc(OCCN3CCCC3)cc2)sc1C(=O)c1ccc(O)c(F)c1: 7.42
- CCN(CC)CCOc1ccc(Nc2nc(N)c(C(=O)c3ccc(O)c(F)c3)s2)cc1: 7.44

Data credit: patent US6818663B2
